Target: T1, mArtemin-MMH (mouse)
T1 construct: also called msArtemin-MMH; msARTN.mmh
T1 chain: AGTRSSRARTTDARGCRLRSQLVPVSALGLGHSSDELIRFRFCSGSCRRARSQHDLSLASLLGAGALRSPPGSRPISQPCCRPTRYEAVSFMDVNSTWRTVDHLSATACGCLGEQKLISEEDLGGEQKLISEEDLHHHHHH
Test: BLI (Octet HTX), mAb captured on AHC tips, artemin at 30 nM, 25 C
value.kind: Artemin Binding Response (nm)
# value in nm; strip the unit string

binder H4H33335P (antibody, human IgG4 S228P, kappa, V domains shown, Fully human antibody; also called Artemin mAb; anti-ARTN antibody) VH: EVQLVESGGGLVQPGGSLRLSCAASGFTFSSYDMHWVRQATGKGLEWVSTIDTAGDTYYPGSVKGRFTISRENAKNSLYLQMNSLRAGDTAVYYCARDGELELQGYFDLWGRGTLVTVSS VL: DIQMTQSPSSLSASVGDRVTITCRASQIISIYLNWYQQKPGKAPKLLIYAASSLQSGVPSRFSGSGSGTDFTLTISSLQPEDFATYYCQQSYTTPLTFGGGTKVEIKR , Artemin Binding Response (nm) observed: 0.08
